test: recombinant UMI read abundance after kanamycin selection (control-corrected) (log10(CPM+1)); higher = more efficient recombination; extreme values may be limits of the assay; sequences stand for … in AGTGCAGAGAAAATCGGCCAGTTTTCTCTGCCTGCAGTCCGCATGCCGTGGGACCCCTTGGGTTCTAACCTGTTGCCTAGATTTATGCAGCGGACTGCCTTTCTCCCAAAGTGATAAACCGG…AGGTTGGTTTCACT; site = the 11-nt donor
Label scheme, based on recombinant UMI read abundance (log10): low = under 0.004, medium = from 0.004 up to 0.4, high = 0.4 and over

1) TGGCCGACATGGACCGGTTTTCCCGGTAATCCGTATTTGGC (site TGGCCGACTGC) = low
2) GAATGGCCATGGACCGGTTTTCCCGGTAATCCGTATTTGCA (site GAATGGTCTTG) = medium
3) GGGAAAACATGGACCGGTTTTCCCGGTAATCCGTATTTGCT (site GAGAAAACTAG) = low
4) GCCTCGCCATGGACCGGTTTTCCCGGTAATCCGTATTTGGT (site GCCTCGCCTAC) = low
5) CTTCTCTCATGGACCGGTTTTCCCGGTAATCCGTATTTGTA (site CTTCTCTCTGA) = high
6) ATAAGGCCATGGACCGGTTTTCCCGGTAATCCGTATTTGAG (site ATAAGGCCTGT) = low
7) CCCCTCGCATGGACCGGTTTTCCCGGTAATCCGTATTTGAA (site CCCCTCGCTTT) = high
8) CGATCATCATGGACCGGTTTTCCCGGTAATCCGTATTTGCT (site CATTCATCTAG) = high
9) AGTAGAACATGGACCGGTTTTCCCGGTAATCCGTATTTGAG (site ATTAGAACTCT) = high
10) CCAGTCACATGGACCGGTTTTCCCGGTAATCCGTATTTGGG (site CCAGTCACTCC) = medium
11) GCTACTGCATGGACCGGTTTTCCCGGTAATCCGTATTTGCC (site GCTACTACTGG) = high
12) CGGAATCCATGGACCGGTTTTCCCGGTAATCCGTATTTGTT (site CGGAGGCCTAA) = medium
13) CGTTTGCCATGGACCGGTTTTCCCGGTAATCCGTATTTGCT (site CGTTTGCCTAG) = high
14) CTTACGGCATGGACCGGTTTTCCCGGTAATCCGTATTTGAT (site CTTACGGCTAT) = high
15) GGGGCATCATGGACCGGTTTTCCCGGTAATCCGTATTTGCA (site GGGGCAACTTG) = low
16) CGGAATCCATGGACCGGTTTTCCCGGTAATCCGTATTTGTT (site CGTAAGCCTAA) = medium
17) CGCCGGACATGGACCGGTTTTCCCGGTAATCCGTATTTGCT (site CGCCGCACTAG) = medium
18) ACTATAACATGGACCGGTTTTCCCGGTAATCCGTATTTGAG (site ACTAAAACTCT) = low

---

The following sequences are shown together with reported recombinant barcode read abundance (log10) values.
assay: recombinant barcode read abundance after kanamycin selection (control-corrected) (log10(CPM+1)); higher = more efficient recombination; sequences stand for … in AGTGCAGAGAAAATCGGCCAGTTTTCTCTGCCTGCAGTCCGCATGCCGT…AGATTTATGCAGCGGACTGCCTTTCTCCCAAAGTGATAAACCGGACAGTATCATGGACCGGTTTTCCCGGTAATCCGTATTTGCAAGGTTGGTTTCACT; site = the 11-nt target
quantity.kind: recombinant barcode read abundance (log10)

1. GGGGCTACTTGGGTTCTAACCTGTTGCAC (site GGGGCTACTGT) = 2.62
2. GGCGAGTCTTGGGTTCTAACCTGTTGCTA (site GGCGAGTCTTA) = 1.64
3. GGAGGGACTTGGGTTCTAACCTGTTGCCT (site GCAGGGACTAG) = 0.658
4. TACTTAACTTGGGTTCTAACCTGTTGCCT (site TACTTAACTAG) = 0.134
5. TAGAATCCTTGGGTTCTAACCTGTTGCAT (site TAGAATCCTAT) = 0.104
6. GCTGCGCCTTGGGTTCTAACCTGTTGCCT (site GCCGGGCCTAG) = 0.225
7. AATGCATCTTGGGTTCTAACCTGTTGCCT (site AATGTATCTAG) = 0.0299
8. GGTGCTCCTTGGGTTCTAACCTGTTGCAC (site GGTGCTCCTCT) = 0.04
9. GATACGCCTTGGGTTCTAACCTGTTGCCT (site GATACGGCTAG) = 0.167
10. ACCTAACCTTGGGTTCTAACCTGTTGCAG (site TCCTAACCTCA) = 0.0355
